# SYSTEM_UNDER_TEST: Prp8 intein (Cryptococcus gattii)
# EXPERIMENTAL_PROTOCOL: Split Cys-free (Cf) GFP-Prp8 intein splicing assay
# Type: biochemical
# CONDITION_SET: read-out: IC50 CfGFP-Prp8 (converted)
# Method: The constructs for Cys-free (Cf) GFP-Prp8 and Cys-free nanoluciferase NnLuc-Prp8 were codon-optimized, synthesized, and cloned into the pET28a vector using the NcoI and XhoI sites by Gene Universal (Gene Universal, Newark Del.). […] The expression, refolding and purification of the CfGFP-Prp8 and NnLuc-Prp8 fusion proteins were carried out as described previously. […] Microbes. Infect. […]
Classify: Condition met when IC50 is strictly less than 40 µM; Condition not met when IC50 is not.

Some solved entries appear below for comparison.
>>> print(df.to_string())
                                   molecule                  system_under_test     classification
0  O=C(Nc1ccc([N+](=O)[O-])cc1F)c1nnsc1S(=O)(=O)c1ccc(Cl)cc1  Prp8 intein (Cryptococcus gattii)      Condition met
1  O=C(Nc1ccc(F)cc1)c1nnsc1S(=O)(=O)c1ccc(F)cc1  Prp8 intein (Cryptococcus gattii)  Condition not met
2  O=C(Nc1cccc(F)c1)c1nnsc1S(=O)(=O)c1ccc(Cl)cc1  Prp8 intein (Cryptococcus gattii)      Condition met

QUERY: I'd appreciate it if you could check whether O=C(Nc1ccc(F)cc1)c1nnsc1[S+]([O-])c1cccc(C(F)(F)F)c1 (centres unmarked) has IC50 smaller than 40 µM.
RESULT: Condition met

QUERY: Also O=C(Nc1cc(F)cc(F)c1)c1nnsc1S(=O)(=O)c1ccc(Cl)cc1 , if possible.
RESULT: Condition met

###

# EXPERIMENTAL_PROTOCOL: in vitro
# Assay type: cell-based, human
# CONDITION_SET: human, CC50 A549
READOUT_TYPE: CC50 at 48 h (µM)
Numbers only, in µM.

The cases that follow already have their CC50 at 48 h on record.
                                   molecule  reading_unit  reported
0  O=C(Nc1ccc(C(F)(F)F)cc1Cl)c1nnsc1S(=O)(=O)c1ccc(Cl)cc1            µM      98.7
1  O=C(Nc1cccc(F)c1)c1nnsc1S(=O)(=O)c1ccc(Cl)cc1            µM       140
2  O=C(Nc1ccc(F)nc1)c1ncsc1S(=O)(=O)c1ccc(Cl)cc1            µM       174
3  O=C(Nc1ccc(Cl)cc1Cl)c1ncsc1S(=O)(=O)c1ccc(Cl)cc1            µM       245
4  O=C(NCc1ccc(F)cc1)c1nnsc1S(=O)(=O)c1ccc(Cl)cc1            µM      21.5
5  O=C(Nc1ccc([N+](=O)[O-])cc1F)c1nnsc1S(=O)(=O)c1ccc(Cl)cc1            µM      66.9

Go through the list and state CC50 at 48 h for each entry.
1. O=C(Nc1c(F)cc(F)cc1F)c1nnsc1S(=O)(=O)c1ccc(Cl)cc1
2. O=C(Nc1cc(F)c(F)c(F)c1)c1nnsc1S(=O)(=O)c1ccc(Cl)cc1
3. O=C(Nc1ccc(F)cc1)c1ncsc1S(=O)(=O)c1ccc(Cl)cc1

RESULT:
47.9
47.8
309

Go through the list and state CC50 at 48 h for each entry.
1. O=C(Nc1ccc(F)c(F)c1)c1nnsc1S(=O)(=O)c1ccc(Cl)cc1
2. O=C(NCc1ccc(F)cc1)c1ncsc1S(=O)(=O)c1ccc(Cl)cc1
3. Cc1ccc(NC(=O)c2nnsc2S(=O)(=O)c2ccc(Cl)cc2)cc1
4. O=C(Nc1ccccc1F)c1nnsc1S(=O)(=O)c1ccc(Cl)cc1
5. O=C(Nc1ccccc1F)c1ncsc1S(=O)(=O)c1ccc(Cl)cc1
6. O=C(Nc1ccc(F)cc1)c1nnsc1S(=O)(=O)c1ccc(F)cc1
7. O=C(Nc1ccccc1)c1nnsc1S(=O)(=O)c1ccc(Cl)cc1

RESULT:
1: 163; 2: 114; 3: 156; 4: 162; 5: 144; 6: 71.7; 7: 84.1

Go through the list and state CC50 at 48 h for each entry.
1. O=C(Nc1cc(F)cc(C(F)(F)F)c1)c1ncsc1S(=O)(=O)c1ccc(Cl)cc1
2. O=C(Nc1ccc(Br)cc1)c1nnsc1S(=O)(=O)c1ccc(Cl)cc1

RESULT:
[97.7, 84.8]

###

# SYSTEM_UNDER_TEST: Prp8 intein (Cryptococcus gattii, UniProt E6R027)
# Sequence (E6R027 entry or part of it): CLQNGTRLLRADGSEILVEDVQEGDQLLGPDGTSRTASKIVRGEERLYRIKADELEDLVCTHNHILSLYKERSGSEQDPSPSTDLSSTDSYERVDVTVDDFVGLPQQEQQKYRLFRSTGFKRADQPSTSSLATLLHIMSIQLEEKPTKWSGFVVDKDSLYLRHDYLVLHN
# EXPERIMENTAL_PROTOCOL: Split GFP-Prp8i intein splicing assay
# Assay type: biochemical
# CONDITION_SET: split GFP-Prp8 intein splicing
READOUT_TYPE: pIC50
Answers are plain numbers, as −log10 of the molar value.

The cases that follow already have their pIC50 on record.
                               entry_smiles                         system_under_test  reported
0  O=C(Nc1ccc(Cl)cc1)c1nnsc1S(=O)(=O)c1ccc(Cl)cc1  Prp8 intein (Cryptococcus gattii, UniProt E6R027)      5.74
1  O=C(Nc1ccc(C(F)(F)F)cc1)c1ncsc1S(=O)(=O)c1ccc(Cl)cc1  Prp8 intein (Cryptococcus gattii, UniProt E6R027)      4.30
2     O=C(Nc1ccc(F)cc1)c1nnsc1Sc1ccc(Cl)cc1  Prp8 intein (Cryptococcus gattii, UniProt E6R027)      4.25
3  O=C(Nc1cc(F)cc(C(F)(F)F)c1)c1ncsc1S(=O)(=O)c1ccc(Cl)cc1  Prp8 intein (Cryptococcus gattii, UniProt E6R027)      4.63

Pending compound:
QUERY: // pIC50 lookup, key: O=C(Nc1ccc(Cl)cc1)c1nnsc1Sc1ccc(Cl)cc1
RESULT: 4.41

###

# SYSTEM_UNDER_TEST: Prp8 intein (Cryptococcus gattii, UniProt E6R027)
# EXPERIMENTAL_PROTOCOL: Split nanoluciferase NnLuc-Prp8 intein splicing assay
# Format: biochemical
Classify: Yes when IC50 is strictly less than 20 µM; No when IC50 is not.

>>> print(df.to_string())
                                   molecule  classification
0  O=C(Nc1ccc(F)cc1)c1nnsc1S(=O)(=O)c1cccc(C(F)(F)F)c1 [JMX1063]              No
1  O=C(Nc1ccc(F)c(F)c1)c1nnsc1S(=O)(=O)c1ccc(Cl)cc1 [JMX876]              No
2  O=C(Nc1ccc(F)cc1)c1nnsc1S(=O)(=O)c1ccc(Cl)c(Cl)c1 [JMX1064]              No
3  O=C(Nc1ccc(F)c(Cl)c1)c1nnsc1S(=O)(=O)c1ccc(Cl)cc1 [JMX1037]             Yes
4  O=C(Nc1cc(F)cc(C(F)(F)F)c1)c1nnsc1S(=O)(=O)c1ccc(Cl)cc1 [JMX1040]              No
5  O=C(Nc1cc(F)cc(F)c1)c1nnsc1S(=O)(=O)c1ccc(Cl)cc1 [JMX1038]              No
6  O=C(Nc1ccc(Cl)c(F)c1)c1nnsc1[S+]([O-])c1ccc(Cl)cc1 (stereo not drawn) [JMX1046-2]             Yes
7  O=C(Nc1ccccc1)c1nnsc1S(=O)(=O)c1ccc(Cl)cc1 [JMX1035]              No

Kindly review the next molecule as well.
QUERY: I'd appreciate it if you could check whether Cc1ccc(NC(=O)c2nnsc2S(=O)(=O)c2ccc(Cl)cc2)cc1 [JMX1033] has IC50 smaller than 20 µM.
RESULT: No

###

# SYSTEM_UNDER_TEST: Prp8 intein (Cryptococcus gattii)
# EXPERIMENTAL_PROTOCOL: Split GFP-Prp8i intein splicing assay
# Type: biochemical
# CONDITION_SET: split GFP-Prp8 intein splicing
pIC50: −log10 of the molar value.
Kind request: treat 5 as inclusive, so pIC50 at 5 or higher is yes (1), anything lower is no (0).

Some solved entries appear below for comparison.
>>> df
                               entry_smiles  classification
0  O=C(Nc1ccc(Cl)cc1Cl)c1ncsc1S(=O)(=O)c1ccc(Cl)cc1          no (0)
1  O=C(Nc1ccc(C(F)(F)F)cc1)c1nnsc1Sc1ccc(Cl)cc1          no (0)
2  O=C(Nc1ccc(F)cc1)c1ncsc1S(=O)(=O)c1ccc(Cl)cc1          no (0)

QUERY: Is pIC50 for O=C(Nc1ccccc1F)c1ncsc1S(=O)(=O)c1ccc(Cl)cc1 at or above 5?
RESULT: no (0)

QUERY: Also O=C(Nc1ccc(C(F)(F)F)cc1)c1nnsc1S(=O)(=O)c1ccc(Cl)cc1 , if possible.
RESULT: yes (1)

QUERY: Also O=C(Nc1ccc(F)cc1)c1nnc(S(=O)(=O)c2ccc(Cl)cc2)s1 , if possible.
RESULT: yes (1)

QUERY: Also O=C(Nc1ccc(C(F)(F)F)nc1)c1ncsc1S(=O)(=O)c1ccc(Cl)cc1 , if possible.
RESULT: no (0)

QUERY: Also O=C(NCc1ccc(F)cc1)c1nnsc1Sc1ccc(Cl)cc1 , if possible.
RESULT: no (0)
